From: ChEMBL document CHEMBL4334552

# ASSAY PROCEDURE: Volume of distribution at steady state in Balb/C mouse at 5 mg/kg, iv
# Type: ADME, organism-based
# CONDITION PARAMETERS: in vivo, read-out: Vdss
RESULT TYPE: Vd

>  <SMI>
N#Cc1cnc2ccc(-c3c(-c4ccc(F)c(Cl)c4)ncn3CCO)nn12

>  <RESULT TYPE>
Vd

>  <RESULT>
4.5 L/kg

$$$$

* * *

# ASSAY PROCEDURE: Solubility of compound in crystalline form at pH 6.5
# Format: physicochemical
RESULT TYPE: solubility (µg/mL)

>  <SMI>
N#Cc1cnc2ccc(-c3c(-c4ccc(F)cc4)ncn3CCO)nn12

>  <READOUT NUMBER>
138

$$$$

* * *

# ASSAY PROCEDURE: Cmax in Beagle dog at 5 mg/kg, po
# Assay type: ADME, organism-based, Canis lupus familiaris
# Design: dose 5 mg/kg, route oral
# CONDITION PARAMETERS: in vivo

>  <SMI>
N#Cc1cnc2ccc(-c3c(-c4ccc(F)c(Cl)c4)ncn3CCO)nn12

>  <Cmax [µM]>
11.2

$$$$

* * *

# ASSAY PROCEDURE: Clearance in Beagle dog at 1 mg/kg, iv
# Type: ADME, organism-based, Canis lupus familiaris
# CONDITION PARAMETERS: in vivo
RESULT TYPE: clearance

>  <SMI>
N#Cc1cnc2ccc(-c3c(-c4ccc(F)c(Cl)c4)ncn3CCO)nn12

>  <RESULT>
6.4 mL/min/kg

$$$$

* * *

# ASSAY PROCEDURE: Tmax in Sprague Dawley rat at 10 mg/kg, po
# Type: ADME, organism-based
# CONDITION PARAMETERS: in vivo

>  <SMI>
N#Cc1cnc2ccc(-c3c(-c4ccc(F)c(Cl)c4)ncn3CCO)nn12

>  <UNIT OF MEASURE>
h

>  <Tmax>
1.1

$$$$

* * *

Entries and their AUC(0-t) at 24 h values follow.
# ASSAY PROCEDURE: AUC (0 to 24 hrs) in mouse at 10 mg/kg, po
# Format: ADME, organism-based
# Set-up: dose 10 mg/kg, time < 24 hr, route oral
# CONDITION PARAMETERS: in vivo

>  <SMI>
NC(=O)c1cnc2ccc(-c3c(-c4ccc(F)cc4)ncn3CC(F)F)nn12

>  <AUC(0-t) at 24 h [µM·h]>
28

$$$$
>  <SMI>
Cc1cccc(-c2ncn(CC(F)F)c2-c2ccc3ncc(C(N)=O)n3c2)n1

>  <AUC(0-t) at 24 h [µM·h]>
2

$$$$

* * *

# TARGET ENTITY: TGF-beta receptor type-2 (Homo sapiens)
# Sequence (P37173 whole entry): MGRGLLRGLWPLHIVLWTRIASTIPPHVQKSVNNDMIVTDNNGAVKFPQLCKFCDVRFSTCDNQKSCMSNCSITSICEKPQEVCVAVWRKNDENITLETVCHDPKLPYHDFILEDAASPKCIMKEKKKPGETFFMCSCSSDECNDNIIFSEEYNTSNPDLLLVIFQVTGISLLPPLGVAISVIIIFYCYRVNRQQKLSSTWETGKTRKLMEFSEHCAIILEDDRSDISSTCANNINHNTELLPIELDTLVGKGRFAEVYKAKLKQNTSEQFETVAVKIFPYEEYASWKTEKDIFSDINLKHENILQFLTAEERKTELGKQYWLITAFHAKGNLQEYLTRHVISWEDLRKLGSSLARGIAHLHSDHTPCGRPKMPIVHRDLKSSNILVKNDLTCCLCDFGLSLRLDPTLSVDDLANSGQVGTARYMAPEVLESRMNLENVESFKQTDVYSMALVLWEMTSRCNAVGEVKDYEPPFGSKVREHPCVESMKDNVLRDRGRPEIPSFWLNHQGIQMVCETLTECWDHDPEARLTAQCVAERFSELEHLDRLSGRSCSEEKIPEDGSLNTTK

>  <SMI>
N#Cc1cnc2ccc(-c3c(-c4ccc(F)c(Cl)c4)ncn3CCO)nn12

>  <IC50>
> 15 µM

$$$$

* * *

Entries and their IC50 values follow.
# TARGET ENTITY: TGF-beta receptor type-1 (Homo sapiens)
# ASSAY PROCEDURE: Inhibition of TGFBR1 in TGFbeta-stimulated human NHLF cells assessed as reduction in SMAD2 nuclear translocation

>  <SMI>
Cc1cccc(-c2ncn(CC(F)F)c2-c2ccc3nccn3c2)n1

>  <TARGET ENTITY>
TGF-beta receptor type-1 (Homo sapiens)

>  <IC50 / nM>
90

$$$$
>  <SMI>
N#Cc1cnc2ccc(-c3c(-c4ccc(F)c(Cl)c4)ncn3CCO)nn12

>  <TARGET ENTITY>
TGF-beta receptor type-1 (Homo sapiens)

>  <IC50 / nM>
190

$$$$

* * *

# ASSAY PROCEDURE: Metabolic stability of compound in mouse liver microsomes assessed as compound remaining
# Format: ADME, Microsome

>  <SMI>
Cc1cccc(-c2ncn(CC(F)F)c2-c2ccc3nccn3c2)n1

>  <UNIT OF MEASURE>
%

>  <Stability>
54

$$$$
>  <SMI>
NC(=O)c1cnc2ccc(-c3c(-c4ccc(F)cc4)ncn3CC(F)F)nn12

>  <UNIT OF MEASURE>
%

>  <Stability>
100

$$$$
>  <SMI>
N#Cc1cnc2ccc(-c3c(-c4ccc(F)c(Cl)c4)ncn3CCO)nn12

>  <UNIT OF MEASURE>
%

>  <Stability>
81

$$$$
>  <SMI>
N#Cc1cnc2ccc(-c3c(-c4ccc(F)cc4)ncn3CC(F)F)nn12

>  <UNIT OF MEASURE>
%

>  <Stability>
89

$$$$
>  <SMI>
N#Cc1cnc2ccc(-c3c(-c4ccc(F)cc4)ncn3CCO)nn12

>  <UNIT OF MEASURE>
%

>  <Stability>
86

$$$$
>  <SMI>
Cc1cccc(-c2ncn(CC(F)F)c2-c2ccc3ncc(C(N)=O)n3c2)n1

>  <UNIT OF MEASURE>
%

>  <Stability>
65

$$$$

* * *

# ASSAY PROCEDURE: Intrinsic permeability in human Caco2 cells
# Format: ADME, cell-based
# CONDITION PARAMETERS: Caco-2

>  <SMI>
N#Cc1cnc2ccc(-c3c(-c4ccc(F)c(Cl)c4)ncn3CCO)nn12

>  <Papp [×10⁻⁶ cm/s]>
27.2

$$$$

* * *

Entries and their remaining at 10 min values follow.
# ASSAY PROCEDURE: Metabolic stability of compound in rat liver microsomes assessed as compound remaining after 10 mins
# Assay type: ADME, Microsome
# CONDITION PARAMETERS: read-out: Stability
RESULT TYPE: remaining at 10 min (%)

>  <SMI>
Cc1cccc(-c2ncn(CC(F)F)c2-c2ccc3ncc(C(N)=O)n3c2)n1

>  <UNIT OF MEASURE>
%

>  <READOUT NUMBER>
74

$$$$
>  <SMI>
NC(=O)c1cnc2ccc(-c3c(-c4ccc(F)cc4)ncn3CC(F)F)nn12

>  <UNIT OF MEASURE>
%

>  <READOUT NUMBER>
100

$$$$
>  <SMI>
N#Cc1cnc2ccc(-c3c(-c4ccc(F)cc4)ncn3CCO)nn12

>  <UNIT OF MEASURE>
%

>  <READOUT NUMBER>
100

$$$$
>  <SMI>
N#Cc1cnc2ccc(-c3c(-c4ccc(F)c(Cl)c4)ncn3CCO)nn12

>  <UNIT OF MEASURE>
%

>  <READOUT NUMBER>
91

$$$$
>  <SMI>
Cc1cccc(-c2ncn(CC(F)F)c2-c2ccc3nccn3c2)n1

>  <UNIT OF MEASURE>
%

>  <READOUT NUMBER>
31

$$$$
>  <SMI>
N#Cc1cnc2ccc(-c3c(-c4ccc(F)cc4)ncn3CC(F)F)nn12

>  <UNIT OF MEASURE>
%

>  <READOUT NUMBER>
96

$$$$

* * *

# ASSAY PROCEDURE: Total AUC in Beagle dog at 1 mg/kg, iv
# Assay type: ADME, organism-based, Canis lupus familiaris
# Design: dose 1 mg/kg, time AUCmax, route intravenous
# CONDITION PARAMETERS: in vivo

>  <SMI>
N#Cc1cnc2ccc(-c3c(-c4ccc(F)c(Cl)c4)ncn3CCO)nn12

>  <AUC, µM·h>
7

$$$$

* * *

# TARGET ENTITY: TGF-beta receptor type-1 (Homo sapiens, UniProt P36897, T204D)
# Sequence (P36897 34-503 T204D limits assumed): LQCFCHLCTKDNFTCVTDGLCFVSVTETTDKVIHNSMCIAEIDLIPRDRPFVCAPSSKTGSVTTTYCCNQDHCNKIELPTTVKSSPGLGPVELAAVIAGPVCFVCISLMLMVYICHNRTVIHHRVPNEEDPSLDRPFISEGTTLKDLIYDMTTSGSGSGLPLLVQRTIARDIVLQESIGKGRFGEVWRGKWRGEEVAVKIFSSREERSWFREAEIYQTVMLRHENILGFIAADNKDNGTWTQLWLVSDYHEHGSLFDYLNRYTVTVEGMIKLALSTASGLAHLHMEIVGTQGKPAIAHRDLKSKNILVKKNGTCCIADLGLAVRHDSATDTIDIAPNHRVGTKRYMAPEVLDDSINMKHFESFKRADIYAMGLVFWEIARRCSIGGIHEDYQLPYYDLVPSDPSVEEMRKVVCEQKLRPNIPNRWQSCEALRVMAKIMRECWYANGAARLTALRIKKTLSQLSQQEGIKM
# ASSAY PROCEDURE: Inhibition of His-tagged TGFBR1 kinase domain T204D mutant (unknown origin) incubated for 1 hr by HTRF analysis
pIC50: −log10 of the molar value.
RESULT TYPE: pIC50

>  <SMI>
N#Cc1cnc2ccc(-c3c(-c4ccc(F)c(Cl)c4)ncn3CCO)nn12

>  <RESULT TYPE>
pIC50

>  <READOUT NUMBER>
8.80

$$$$

* * *

# TARGET ENTITY: Voltage-gated inwardly rectifying potassium channel KCNH2 (Homo sapiens, UniProt Q12809)
# Sequence (Q12809 whole entry): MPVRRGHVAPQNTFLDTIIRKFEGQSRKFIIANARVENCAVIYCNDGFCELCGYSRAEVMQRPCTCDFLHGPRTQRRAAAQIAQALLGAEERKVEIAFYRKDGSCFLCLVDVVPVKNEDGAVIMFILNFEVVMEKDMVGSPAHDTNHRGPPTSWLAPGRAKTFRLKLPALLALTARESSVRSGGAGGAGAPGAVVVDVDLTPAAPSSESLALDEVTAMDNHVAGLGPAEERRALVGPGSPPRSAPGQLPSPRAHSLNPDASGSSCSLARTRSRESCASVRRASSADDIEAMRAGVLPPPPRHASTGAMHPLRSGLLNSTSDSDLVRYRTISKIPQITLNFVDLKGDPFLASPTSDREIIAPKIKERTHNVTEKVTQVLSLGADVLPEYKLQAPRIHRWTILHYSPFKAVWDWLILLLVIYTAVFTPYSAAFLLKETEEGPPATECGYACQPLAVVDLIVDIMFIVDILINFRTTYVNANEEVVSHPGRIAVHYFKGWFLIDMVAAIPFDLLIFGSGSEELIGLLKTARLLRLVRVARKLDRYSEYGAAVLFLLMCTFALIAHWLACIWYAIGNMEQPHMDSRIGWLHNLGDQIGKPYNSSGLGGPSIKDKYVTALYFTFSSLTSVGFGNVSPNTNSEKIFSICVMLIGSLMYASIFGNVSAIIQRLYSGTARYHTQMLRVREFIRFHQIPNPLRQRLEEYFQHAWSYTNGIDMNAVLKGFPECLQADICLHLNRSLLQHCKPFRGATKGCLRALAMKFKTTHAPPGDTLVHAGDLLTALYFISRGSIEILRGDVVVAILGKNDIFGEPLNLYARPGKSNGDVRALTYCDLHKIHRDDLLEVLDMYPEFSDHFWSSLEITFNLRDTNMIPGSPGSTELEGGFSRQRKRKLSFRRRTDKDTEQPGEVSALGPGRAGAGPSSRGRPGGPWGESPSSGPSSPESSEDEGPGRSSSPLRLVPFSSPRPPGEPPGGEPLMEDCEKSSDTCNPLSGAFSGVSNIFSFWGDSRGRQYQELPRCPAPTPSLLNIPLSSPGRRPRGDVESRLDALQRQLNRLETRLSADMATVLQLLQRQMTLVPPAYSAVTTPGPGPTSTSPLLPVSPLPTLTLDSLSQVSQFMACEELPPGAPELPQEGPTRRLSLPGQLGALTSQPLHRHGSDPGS
pIC50: −log10 of the molar value.
RESULT TYPE: pIC50

>  <SMI>
N#Cc1cnc2ccc(-c3c(-c4ccc(F)c(Cl)c4)ncn3CCO)nn12

>  <TARGET ENTITY>
Voltage-gated inwardly rectifying potassium channel KCNH2 (Homo sapiens, UniProt Q12809)

>  <RESULT>
< 5.00

$$$$

* * *

# TARGET ENTITY: Cytochrome P450 2C19 (Homo sapiens, UniProt P33261)
# Sequence (P33261 whole entry): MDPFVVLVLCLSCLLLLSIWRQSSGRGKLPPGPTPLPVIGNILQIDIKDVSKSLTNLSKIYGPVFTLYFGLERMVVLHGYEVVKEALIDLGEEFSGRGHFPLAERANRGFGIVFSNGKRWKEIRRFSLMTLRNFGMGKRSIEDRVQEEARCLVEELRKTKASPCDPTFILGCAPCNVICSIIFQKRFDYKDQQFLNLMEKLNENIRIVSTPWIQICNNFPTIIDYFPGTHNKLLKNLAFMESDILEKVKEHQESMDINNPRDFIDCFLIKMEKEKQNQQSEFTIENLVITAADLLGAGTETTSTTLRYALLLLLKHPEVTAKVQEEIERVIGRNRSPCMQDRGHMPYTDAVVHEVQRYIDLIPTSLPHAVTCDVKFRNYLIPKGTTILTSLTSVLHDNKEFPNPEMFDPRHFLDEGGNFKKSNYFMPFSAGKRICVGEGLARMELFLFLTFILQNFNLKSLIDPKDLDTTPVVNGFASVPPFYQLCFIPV
# ASSAY PROCEDURE: Inhibition of recombinant CYP2C19 (unknown origin)

>  <SMI>
N#Cc1cnc2ccc(-c3c(-c4ccc(F)c(Cl)c4)ncn3CCO)nn12

>  <IC50>
> 20 µM

$$$$

* * *

# ASSAY PROCEDURE: Protein binding in dog serum assessed as unbound fraction
# Assay type: ADME, cell-free, Canis lupus familiaris

>  <SMI>
N#Cc1cnc2ccc(-c3c(-c4ccc(F)c(Cl)c4)ncn3CCO)nn12

>  <fraction unbound>
0.13

$$$$

* * *

# TARGET ENTITY: TGF-beta receptor type-1 (Homo sapiens, UniProt P36897)
# Sequence (P36897 whole entry): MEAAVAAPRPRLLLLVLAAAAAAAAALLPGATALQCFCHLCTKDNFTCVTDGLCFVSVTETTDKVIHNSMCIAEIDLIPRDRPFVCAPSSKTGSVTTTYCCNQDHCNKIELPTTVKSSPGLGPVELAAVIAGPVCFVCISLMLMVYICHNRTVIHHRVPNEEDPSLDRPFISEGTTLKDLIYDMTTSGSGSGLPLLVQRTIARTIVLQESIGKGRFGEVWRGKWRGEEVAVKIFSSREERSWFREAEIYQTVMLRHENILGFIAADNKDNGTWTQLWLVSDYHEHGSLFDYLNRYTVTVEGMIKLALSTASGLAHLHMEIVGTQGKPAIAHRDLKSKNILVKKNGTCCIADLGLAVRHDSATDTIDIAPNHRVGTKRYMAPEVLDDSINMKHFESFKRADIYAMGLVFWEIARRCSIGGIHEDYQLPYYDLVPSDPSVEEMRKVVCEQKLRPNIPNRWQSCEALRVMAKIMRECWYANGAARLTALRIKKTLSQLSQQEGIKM
# ASSAY PROCEDURE: Inhibition of TGFbetaR1 in anti-CD3/anti-CD28/IL-2/TGFbeta -stimulated human Treg cells assessed as downregulation of FOXP3 expression incubated for 5 days by flow cytometry analysis
pIC50: −log10 of the molar value.
RESULT TYPE: pIC50

>  <SMI>
N#Cc1cnc2ccc(-c3c(-c4ccc(F)c(Cl)c4)ncn3CCO)nn12

>  <RESULT TYPE>
pIC50

>  <READOUT NUMBER>
6.64

$$$$
